# Tested on: methicillin resistant Staphylococcus aureus (MRSA) biofilm
# recorded.conditions: approximate peptide concentration […] (around 3 μg/ml); compared to untreated samples
# Procedure: Methods of assessment of anti-biofilm activity—Biofilm formation was initially analyzed using a static abiotic solid surface assay as described elsewhere (de la Fuente-Nunez et al., 2012). […] Peptide was added at time zero (prior to adding the diluted, overnight cultures) in varying concentrations, and the decrease in biofilm formation was recorded at 22-46 h for most bacteria. […]
Ends that are not written are not given here.
Property: % Biofilm inhibition; scope: individual substances
Expressed in %, but write only the number.

Q: What value of measured % Biofilm inhibition is listed for 1002-A5: single substituted 1002 peptide (VQRWAIVWRIRK-NH2) [Peptide 1002-A5] ?
Result: 70

More entries:
Q: Which measured % Biofilm inhibition value corresponds to 1002-A7: single substituted 1002 peptide (VQRWLIAWRIRK-NH2) [Peptide 1002-A7] ?
Result: 58

Q: Which % Biofilm inhibition reading was recorded for the substance 1018-I3: single substituted 1018 peptide (VRIIVAVRIWRR-NH2) [Peptide 1018-I3] ?
Result: 68

Q: // returns reported % Biofilm inhibition for input 1002-K8: single substituted 1002 peptide (VQRWLIVKRIRK-NH2) [Peptide 1002-K8]
Result: 0

Q: Could you tell me which % Biofilm inhibition is on file for 1002-G7: single substituted 1002 peptide (VQRWLIGWRIRK-NH2) [Peptide 1002-G7] ?
Result: 54

Q: State the recorded % Biofilm inhibition for this entry: 1018-Q4: single substituted 1018 peptide (VRLQVAVRIWRR-NH2) [Peptide 1018-Q4]
Result: 39

Q: What value of % Biofilm inhibition has been reported for the following substance? 1018-V12: single substituted 1018 peptide (VRLIVAVRIWRV-NH2) [Peptide 1018-V12]
Result: 56

---

# Test system: LPS-stimulated human peripheral blood mononuclear cells (IL1-β)
# Format: cell-based
# recorded.conditions: Table 12; cells stimulated with 10 ng/ml LPS; LPS alone 1313 (HH2 derivatives), 1927 (1018 derivatives), 2455 (1002 and hybrid peptides) pg/ml
Ends that are not written are not given here.
# key: entry, value: IL1β Production
Only the number, expressed in pg/mL, is required.

Please review the following examples before continuing.
Q: Find the recorded IL1β Production belonging to 1002-W10: single substituted 1002 peptide (VQRWLIVWRWRK-NH2) [Peptide 1002-W10] and report it.
Result: 127

Q: Can you look up the measured IL1β Production of HH2-W5: single substituted HH2 peptide (VQLRWRVAVIRA-NH2) for me?
Result: 1007

Q: For the substance shown here, 1018-W7: single substituted 1018 peptide (VRLIVAWRIWRR-NH2) [Peptide 1018-W7] , give the reported IL1β Production.
Result: 483

Q: Would you mind telling me what IL1β Production value was observed for HH2-G7: single substituted HH2 peptide (VQLRIRGAVIRA-NH2) ?
Result: 1344

Q: Recorded IL1β Production of HH2-K7: single substituted HH2 peptide (VQLRIRKAVIRA-NH2) , please.
Result: 1782

Q: Any idea what its IL1β Production is? The substance is 1018-R3: single substituted 1018 peptide (VRRIVAVRIWRR-NH2) [Peptide 1018-R3]
Result: 1636

Q: Which IL1β Production value is on record for 1018-G5: single substituted 1018 peptide (VRLIGAVRIWRR-NH2) [Peptide 1018-G5] ?
Result: 1620

--- query ---
Q: For 1002-I11: single substituted 1002 peptide (VQRWLIVWRIIK-NH2) [Peptide 1002-I11] , what is its reported IL1β Production?
Result: 127

Data credit: patent US20190315823A1
